Tested on: OVCAR-8
assay.notes: Anticancer activity against human OVCAR8 cells after 48 hrs by sulforhodamine B assay
Assay type: functional
measurement.conditions: Homo sapiens, OVCAR-8, 48 h
endpoint: GI50
The reply should consist of the numeric value with the unit placed after it.

[[record]]
smiles_input = "CCCCCCCCCCCCCCCCCC[n+]1ccn(C)c1.[Cl-]"
value_observed = "998 nM"

[[record]]
smiles_input = "CCCCCCCCCCCCCCCCCC[n+]1ccn(C)c1.FC(F)(F)C(F)(F)[P-](F)(F)(F)(C(F)(F)C(F)(F)F)C(F)(F)C(F)(F)F"
value_observed = "491 nM"

[[record]]
smiles_input = "CCCCCCCCCCCCCCCCCC[n+]1ccn(C)c1.O=S(=O)([N-]S(=O)(=O)C(F)(F)F)C(F)(F)F"
value_observed = "913 nM"

[[record]]
smiles_input = "CCCCCCCCCCCC[n+]1ccn(C)c1.[Cl-]"
value_observed = "2180 nM"


--- query ---
Q: What value of GI50 has been recorded for this entry: CCCCCCCCCCCCCCCC[n+]1ccn(C)c1.[Cl-]
A: 865 nM
